The reported measurements were obtained from patent US9675615B2.

Tested on: recombinant Ebolavirus that encodes green fluorescent protein
Experiment: microbe, parasite or virus in culture
Assay type: cell-based
Conditions: Orthoebolavirus, HeLa, read-out: IC50 (concentration that results in 50% inhibition of infection)
pIC50: −log10 of the molar value.
Recorded pIC50 for the following compounds

- compound: "O=C1c2ccccc2NC(c2ccc(-c3ccccn3)s2)N1c1ccccc1 (stereo not shown)"
  pIC50: 5.25
- compound: "O=C1c2ccccc2NC(c2ccc(-c3ccco3)s2)N1c1ccccc1 (stereo not shown)"
  pIC50: 5.27
- compound: "Cc1nc(-c2ccc(C3Nc4ccccc4C(=O)N3c3ccccc3)s2)cs1 (stereo not shown)"
  pIC50: 5.64
- compound: "CSc1ccc(C2Nc3ccccc3C(=O)N2c2ccccc2)s1 (stereo not shown)"
  pIC50: 5.13
- compound: "O=C1c2ccccc2NC(c2ccc(-c3ccccc3)s2)N1c1ccccc1 (stereo not shown)"
  pIC50: 5.38
- compound: "CCc1ccc(C2Nc3ccccc3C(=O)N2c2ccccc2)s1 (stereo not shown)"
  pIC50: 4.96
- compound: "O=C1c2ccccc2NC(c2ccc(-c3cccs3)s2)N1c1ccccc1 (stereo not shown)"
  pIC50: 5.33
